Target: T1, hSEZ6-ECD-His (human, UniProt Q53EL9 20-925)
T1 construct: the whole entry is named; also called recombinant SEZ6-His; human recombinant SEZ6-His
Test: bio-layer interferometry (ForteBio RED) or surface plasmon resonance (Biacore 2000) on human SEZ6-His; the table does not say which; column Hu Affinity (Kd, nM)
Observed property: Kd (nM)

Binder	Numeric result
SC17.45 (antibody, V domains shown, murine mAb) VH: QVQLQQPGSVLVRPGDSVKLSCKASGYTFTSYWMHWVKQSPGQGLEWIGEIHPHSGSTNYNEKFKGKATLTVDTSSSTAYVDLSSLTSEDSAVYYCVGGHYDYWGQGTTLTVSS VL: ENVLTQSPAIMSASPGEKVTMTCSASSSVNYMYWYQQKSSTSPKLWIYDTSKLTSGVPGRFSGSGSGNSYSLTISNMEAEDVATYYCFQGSGYPLTFGSGTKLEIK	17.4
SC17.19 (antibody, V domains shown, murine mAb) VH: DVQLQESGPGLVKPSQSLSVTCTVTGYSITSSYTWNWIRQFPGNKLEWMGYIHYSGSTNYNPSLRSRISITRDTSKNQFFLQLNSVTTEDTATYYCARSRYYYDAYGFAYWGQGTLVTVSA VL: DIVLTQSPASLAVSLGQRAAISCKPSQSVDYDGDSYMNWYQQKPGQPPKLLIYAASNLESGIPARFSGSGSGTDFTLNIHPVEEEDAATYYCHQINDDPWTFGGGTKLK	5.3
